test: amyloid nucleation score (Sup35N fusion, yeast selection) (log enrichment); library NNK2; higher = more nucleation; inactive = no reads after selection;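 further: zero at mode of non-aggregating sequences after 7 days selection at 30°C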
REPORTED ENDPOINT: amyloid nucleation score

FNKDMSNKFNSDKGELSSFM ... inactive
ILFLVNLFSLSIANVFR ... inactive
YEGNFAHCFSLGPDHVID ... -0.202
IVTAVITM ... inactive

* * *

assay: amyloid nucleation score (Sup35N fusion, yeast selection) (log enrichment); library NNK1; higher = more nucleation; inactive = no reads after selection
REPORTED ENDPOINT: amyloid nucleation score

YWCLRSLMV ... inactive
HIGIWTIPSRKEGR ... inactive
FPSNPYPNLPNMDVKRSNAF ... inactive

* * *

test: amyloid nucleation score (Sup35N fusion, yeast selection) (log enrichment); library NNK3; higher = more nucleation; inactive = no reads after selection
REPORTED ENDPOINT: amyloid nucleation score

Some substances with known amyloid nucleation score results, for comparison:
YCMYMCFSVMAGGGIVTMLW ... inactive
LSEFYPAMRSTTTPVQNVSG ... inactive
ITWWLVIVAARSEGSCSPFQ ... 0.158
TYPSEVYFIMFAMFSSTCWS ... inactive
ACYAAQCWSNF ... inactive

Could you now look at the following substance, please?
get_value(item= `ANFQWE` , readout=amyloid nucleation score) returns inactive

* * *

experiment: amyloid nucleation score (Sup35N fusion, yeast selection) (log enrichment); library NNK2; higher = more nucleation; inactive = no reads after selection
REPORTED ENDPOINT: amyloid nucleation score
Please reply with the number alone, leaving off any unit.

GLSQILDDVGWICRVFELQR ... 0.299
NKLFPAWLPMCVFWFYGFLA ... -0.138
GLEFFLGYGYIAARHWVSGS ... 1.59
FSNLPGH ... 1.98
HIFGNRYWYSFCCFLLLPRR ... 7.69
FYLWATTYQCRFFIRYAKFS ... 2.97
DTWTYVAWFLYIIICSRQTE ... -0.623
PGYGPLTMGGS ... 1.35

get_value(item= `LKTACVDALLH` , readout=amyloid nucleation score) returns 0.258

get_value(item= `ACVCHREGCVAKGIIVM` , readout=amyloid nucleation score) returns 0.237

get_value(item= `STMAFWSYHGWCYGVLIL` , readout=amyloid nucleation score) returns -0.898

get_value(item= `PYVMCLNDYPSSKDCFQIVS` , readout=amyloid nucleation score) returns -0.619

get_value(item= `PGNNMLFMWYHWGLGCNFLM` , readout=amyloid nucleation score) returns -0.059

get_value(item= `CASLRIEDP` , readout=amyloid nucleation score) returns 1.17

get_value(item= `RLHEYVSLLRGNQRVAHSRS` , readout=amyloid nucleation score) returns 3.89

get_value(item= `LVSLLFFGSVSLAKCQWN` , readout=amyloid nucleation score) returns -0.526

get_value(item= `LHSRFL` , readout=amyloid nucleation score) returns 0.236

get_value(item= `RFYKSNGPRF` , readout=amyloid nucleation score) returns -1.28

get_value(item= `RVCMINSYLLVTRCVGDN` , readout=amyloid nucleation score) returns 8.39

get_value(item= `GVKSFGVFGSMYWILMFSKA` , readout=amyloid nucleation score) returns -0.495

* * *

Here, each record is paired with measured amyloid nucleation score data.
test: amyloid nucleation score (Sup35N fusion, yeast selection) (log enrichment); library NNK2; higher = more nucleation; inactive = no reads after selection
Please reply with the number alone, leaving off any unit.

NIGSWGVSRLSCLYAGLANG ... 0.549
FALHGEFFYHKKRSQGFRAH ... -1.36

Could you now look at the following sequence, please?
get_value(item= `SLQRIKGNFQPMVFAINMFN` , readout=amyloid nucleation score) returns 4.6
